Format: physicochemical
Starred links: 1 amine or outer side, 2 acyl side, 3 side chain; linkers in the order of their positions; H or OH if unused. Non-standard residues stand in square brackets, D forms with d. Residues, ends and D or L forms follow the SMILES beside them. *: point of attachment. DOTA = O=C(O)CN1CCN(CC(=O)O)CCN(CC(=O)*)CCN(CC(=O)O)CC1; d(γGlu) = O=C(O)[C@@H](CCC(=O)[*:2])N[*:1]
OUTCOME MEASURE: logP
Number only, please.

// query Data request, read-out logP, for C[C@H](N)C(=O)N[C@H](CCC(=O)N[C@@H](CCCCNC(=O)CN1CCN(CC(=O)O)CCN(CC(=O)O)CCN(CC(=O)O)CC1)C(=O)O)C(=O)O [[^68Ga]Ga-DOTA-AeK, metal not drawn] (H-Ala-[d(γGlu)]-Lys(DOTA)-OH)
// result -1.08

---

Type: in vivo, BALB/c mice
EXPERIMENTAL CONDITIONS: mouse, in vivo, iv, Ex vivo organ biodistribution, Brain
Experimental: Six-to-eight-week-old mixed-gender BALB/c mice (20.0 ± 2.1 g) were utilized. […] After PET/CT imaging, the mice were euthanized via cervical dislocation while still under anesthesia. […] The radioactivity of each sample was determined using an automatic gamma counter (Hidex AMG, Turku, Finland). Results were expressed as a percentage of injected dose per gram organ (%ID/g). […]
Starred links: 1 amine or outer side, 2 acyl side, 3 side chain; linkers in the order of their positions; H or OH if unused. Non-standard residues stand in square brackets, D forms with d. Residues, ends and D or L forms follow the SMILES beside them. *: point of attachment. DOTA = O=C(O)CN1CCN(CC(=O)O)CCN(CC(=O)*)CCN(CC(=O)O)CC1; d(γGlu) = O=C(O)[C@@H](CCC(=O)[*:2])N[*:1]
OUTCOME MEASURE: tissue uptake at 1 h (%ID/g)
Give the quantity in %ID/g, number only.

// query I would be grateful if you could share the reported tissue uptake at 1 h for C[C@H](N)C(=O)N[C@H](CCC(=O)N[C@@H](CCCCNC(=O)CN1CCN(CC(=O)O)CCN(CC(=O)O)CCN(CC(=O)O)CC1)C(=O)O)C(=O)O [[^68Ga]Ga-DOTA-AeK, metal not drawn] (H-Ala-[d(γGlu)]-Lys(DOTA)-OH) .
// result 0.1

---

Type: in vivo, BALB/c mice
EXPERIMENTAL CONDITIONS: mouse, in vivo, iv, Ex vivo organ biodistribution, Liver
Starred links: 1 amine or outer side, 2 acyl side, 3 side chain; linkers in the order of their positions; H or OH if unused. Non-standard residues stand in square brackets, D forms with d. Residues, ends and D or L forms follow the SMILES beside them. *: point of attachment. DOTA = O=C(O)CN1CCN(CC(=O)O)CCN(CC(=O)*)CCN(CC(=O)O)CC1; d(γGlu) = O=C(O)[C@@H](CCC(=O)[*:2])N[*:1]
OUTCOME MEASURE: tissue uptake at 1 h (%ID/g)
Output spec: scalar in %ID/g, unitless text.

// query Reported tissue uptake at 1 h, compound C[C@H](N)C(=O)N[C@H](CCC(=O)N[C@@H](CCCCNC(=O)CN1CCN(CC(=O)O)CCN(CC(=O)O)CCN(CC(=O)O)CC1)C(=O)O)C(=O)O [[^68Ga]Ga-DOTA-AeK, metal not drawn] (H-Ala-[d(γGlu)]-Lys(DOTA)-OH) : ____
// result 1.1
